We begin with a simple list: items and their reported CC50.
# PROTOCOL SUMMARY: Toxicity in tissue culture, reduction of cell number
# Assay type: cell-based
# DETAILS: human, human embryonic lung fibroblast (HEL) cells; Table 2; concentration reducing cell number by 50%

Solved entries:
>  <MOLECULE>
CCCCCCCCCCc1cc2cnc(OCCC)nc2o1 [Cf2303, 6-Decyl-2-propoxy-furo[2,3-d]pyrimidine]

>  <OBSERVED>
126 µM

$$$$
>  <MOLECULE>
CCCCCCCCCCc1cc2cnc(OCc3ccccc3)nc2o1

>  <OBSERVED>
> 200 µM

$$$$
>  <MOLECULE>
CCCCCCCc1cc2cnc(OC(CC)CC)nc2o1

>  <OBSERVED>
98 µM

$$$$
>  <MOLECULE>
CCCCCCCCCCc1cc2cnc(OC3CCCCC3)nc2o1

>  <OBSERVED>
> 200 µM

$$$$
>  <MOLECULE>
CCCCCCCc1cc2cnc(OC3CCCC3)nc2o1

>  <OBSERVED>
132 µM

$$$$
>  <MOLECULE>
CCCCCCCc1cc2cnc(OCCCCC)nc2o1

>  <OBSERVED>
1110 µM

$$$$
>  <MOLECULE>
CCCCc1cc2cnc(OC(CC)CC)nc2o1

>  <OBSERVED>
98 µM

$$$$
>  <MOLECULE>
CCCCCCCCCCc1cc2cnc(OCCCC)nc2o1 [Cf2305, 2-Butoxy-6decyl-furo[2,3-a]pyrimidine]

>  <OBSERVED>
> 200 µM

$$$$

query: // CC50 lookup, key: CCCCCCCCCCc1cc2cnc(OC(CC)CC)nc2o1
result: 127 µM

query: // CC50 lookup, key: CCCCc1cc2cnc(OC3CCCC3)nc2o1
result: 108 µM

query: // CC50 lookup, key: CCCCCCCCCCc1cc2cnc(OC3CCCC3)nc2o1
result: > 200 µM

query: // CC50 lookup, key: CCCCCCCCCCc1cc2cnc(OCC3CCCCC3)nc2o1
result: > 200 µM

query: // CC50 lookup, key: CCCCCCCCCCc1cc2cnc(OCc3ccc(C)cc3)nc2o1
result: > 200 µM

query: // CC50 lookup, key: CCCCCCCCCCc1cc2cnc(OCCCCC)nc2o1
result: > 200 µM

query: // CC50 lookup, key: CCCCCCCCCCc1cc2cnc(OCc3ccc(OC)cc3)nc2o1
result: > 200 µM

* * *

# PROTOCOL SUMMARY: Toxicity in tissue culture, reduction of cell number
# Assay type: cell-based
# DETAILS: human, human embryonic lung fibroblast (HEL) cells; Table 1; concentration reducing cell number by 50%
We begin with a simple list: items and their reported CC50.
Give the value in µM but do not write µM after it.

Solved entries:
>  <COMPOUND>
CCCCCCCCCCc1cc2cn(C3CCOC3)c(=O)nc2o1 (centres unmarked) [Cf2276]

>  <OBSERVED>
148

$$$$
>  <COMPOUND>
CCCCCCCc1cc2cn(C3CCCO3)c(=O)nc2o1 (centres unmarked) [Cf2196]

>  <OBSERVED>
46

$$$$

Next item in the queue.
query: // CC50 lookup, key: CCCCCCCc1cc2cn(C3CCCC3)c(=O)nc2o1 [Cf2160]
result: 194
